Assay Info: Half life in Balb/c mouse at 10 mg/kg, po qd
Test Context: in vivo
Quantity: half-life (h)

{"columns": ["Compound", "Test Result"],
 "data": [
  ["Cc1cc(OCc2nc(-c3ccc(OC4CCCC4)cc3)c(-c3ccc(OC(F)(F)F)cc3)o2)ccc1OCC(=O)O", 3.1],
  ["Cc1cc(OCc2nc(-c3ccc(OC(C)C)nc3)c(-c3ccc(OC(F)(F)F)cc3)o2)ccc1OCC(=O)O", 5.3],
  ["Cc1cc(OCc2nc(-c3ccc(OC(C)C)cc3)c(-c3ccc(OC(F)(F)F)cc3)o2)ccc1OCC(=O)O", 5.1],
  ["Cc1cc(OCc2nc(-c3ccc(OC(C)C)cc3)c(-c3ccc(OC(F)(F)F)cc3)s2)ccc1OCC(=O)O", 9],
  ["Cc1cc(OCc2nc(-c3ccc(OC(C)C)cc3)c(-c3ccc(C(F)(F)F)cc3)s2)ccc1OCC(=O)O", 3.9],
  ["Cc1cc(OCc2nc(-c3ccc(OC(C)C)nc3)c(-c3ccc(OC(F)(F)F)cc3)s2)ccc1OCC(=O)O", 10.8],
  ["Cc1cc(OCc2nc(-c3ccc(N4CCOCC4)cc3)c(-c3ccc(-c4ccccc4)cc3)s2)ccc1OCC(=O)O", 5.1],
  ["Cc1cc(OCc2nc(-c3cccnc3)c(-c3ccc(-c4ccccc4)cc3)o2)ccc1OCC(=O)O", 4],
  ["Cc1cc(SCc2sc(-c3ccc(C(F)(F)F)cc3)nc2C)ccc1OCC(=O)O [GW501516]", 4.4],
  ["CCCc1ccc(-c2oc(COc3ccc(OCC(=O)O)c(C)c3)nc2-c2cnc(OC)nc2)cc1", 2.7],
  ["Cc1cc(OCc2nc(-c3ccc(N4CCOCC4)nc3)c(-c3ccc(OC(F)(F)F)cc3)o2)ccc1OCC(=O)O", 3.8],
  ["Cc1cc(OCc2nc(-c3cnc(OC(C)C)nc3)c(-c3ccc(OC(F)(F)F)cc3)s2)ccc1OCC(=O)O", 2.3],
  ["Cc1cc(OCc2nc(-c3ccc(OC4CCCC4)cc3)c(-c3ccc(OC(F)(F)F)cc3)s2)ccc1OCC(=O)O", 7.6]
]}

###

Target Desc: Peroxisome proliferator-activated receptor alpha (Homo sapiens)
Sequence (Q07869 whole entry): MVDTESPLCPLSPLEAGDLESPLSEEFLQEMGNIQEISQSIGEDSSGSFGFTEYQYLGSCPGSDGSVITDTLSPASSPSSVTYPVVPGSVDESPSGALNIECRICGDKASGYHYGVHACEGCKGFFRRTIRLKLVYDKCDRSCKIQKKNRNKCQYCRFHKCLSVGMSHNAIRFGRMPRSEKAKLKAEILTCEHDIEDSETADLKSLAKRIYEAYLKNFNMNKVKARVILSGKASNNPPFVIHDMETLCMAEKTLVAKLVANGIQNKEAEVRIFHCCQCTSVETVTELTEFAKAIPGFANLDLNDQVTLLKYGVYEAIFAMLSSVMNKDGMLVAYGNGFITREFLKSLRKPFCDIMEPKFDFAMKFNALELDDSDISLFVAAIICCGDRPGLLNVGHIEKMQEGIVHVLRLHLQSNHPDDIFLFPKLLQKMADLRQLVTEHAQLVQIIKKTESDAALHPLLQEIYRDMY
Assay Info: Agonist activity at human PPARalpha ligand binding domain expressed in human 293T cells co-transfected with Gal4-DBD by luciferase transactivation assay
Format: cell-based
Test Context: read-out: EC50
# key: entry, value: EC50

{"columns": ["Compound", "EC50"],
 "data": [
  ["COc1ncc(-c2nc(COc3ccc(OCC(=O)O)c(C)c3)oc2-c2ccc(OC(F)(F)F)cc2)cn1", "> 10 µM"],
  ["Cc1cc(OCc2nc(-c3cnc(N4CCOCC4)nc3)c(-c3ccc(OC(F)(F)F)cc3)s2)ccc1OCC(=O)O", "1.99 µM"],
  ["O=C(O)Cc1cccc(-c2noc(-c3ccccc3)c2C(=O)NCCOc2cc(Cl)cc(Cl)c2)c1", "> 10 µM"],
  ["Cc1cc(OCc2nc(-c3ccc(C(F)(F)F)cc3)c(-c3ccc(OC(F)(F)F)cc3)s2)ccc1OCC(=O)O", "> 10 µM"],
  ["Cc1cc(OCc2nc(-c3cnc(OC(C)C)nc3)c(-c3ccc(OC(F)(F)F)cc3)o2)ccc1OCC(=O)O", "0.16 µM"],
  ["COc1ccc(-c2nc(COc3ccc(OCC(=O)O)c(C)c3)sc2-c2ccc(OC(F)(F)F)cc2)cc1F", "> 10 µM"],
  ["COc1ccc(-c2nc(COc3ccc4oc(C(=O)O)cc4c3)sc2-c2ccc(C(F)(F)F)cc2)cc1", "> 10 µM"],
  ["Cc1cc(OCc2nc(-c3ccc(C(F)(F)F)cc3)cs2)ccc1OCC(=O)O", "> 10 µM"],
  ["CCCOc1ccc(-c2nc(COc3ccc(OCC(=O)O)c(C)c3)sc2-c2ccc(OC(F)(F)F)cc2)cc1", "> 10 µM"],
  ["Cc1cc(OCc2nc(-c3ccc(N4CCOCC4)cc3)c(-c3ccc(OC(F)(F)F)cc3)s2)ccc1OCC(=O)O", "> 10 µM"],
  ["CCOC(Cc1ccc(OCc2nc(-c3ccc(OC)cc3)c(-c3ccc(C(F)(F)F)cc3)s2)cc1)C(=O)O (stereo unspecified)", "1.09 µM"],
  ["COc1ccc(-c2nc(COc3ccc(OCC(=O)O)c(C)c3)oc2-c2ccc(C(F)(F)F)cc2)cc1", "> 10 µM"],
  ["Cc1cc(OCc2nc(-c3ccc(C(=O)N(C)C(C)C)cc3)c(-c3ccc(OC(F)(F)F)cc3)s2)ccc1OCC(=O)O", "0.69 µM"],
  ["Cc1cc(OCc2nc(-c3cccnc3)c(-c3ccc(OC(F)(F)F)cc3)s2)ccc1OCC(=O)O", "> 10 µM"],
  ["Cc1cc(OCc2nc(-c3ccc(N4CCOCC4)nc3)c(-c3ccc(OC(F)(F)F)cc3)s2)ccc1OCC(=O)O", "> 10 µM"],
  ["Cc1cc(OCc2nc(-c3ccc(OC4CCCC4)cc3)c(-c3ccc(OC(F)(F)F)cc3)s2)ccc1OCC(=O)O", "> 10 µM"],
  ["COc1ccc(-c2nc(COc3cccc(OCC(=O)O)c3)sc2-c2ccc(C(F)(F)F)cc2)cc1", "> 10 µM"],
  ["COc1ccc(-c2nc(CSc3ccc(OCC(=O)O)c(C)c3)sc2-c2ccc(C(F)(F)F)cc2)cc1", "> 10 µM"],
  ["COc1ccc(-c2nc(COc3ccc(OCC(=O)O)c(C)c3)sc2/C=C/c2ccccc2)cc1", "> 10 µM"],
  ["COc1ccc(-c2nc(COc3ccc(OCC(=O)O)c(C)c3)oc2-c2ccc(Cl)cc2)cc1", "> 10 µM"],
  ["Cc1cc(OC/C=C(\\C#Cc2ccc(C(F)(F)F)cc2)c2ccc(Br)cc2)ccc1OCC(=O)O", "> 10 µM"],
  ["COc1ccc(-c2sc(COc3ccc(OCC(=O)O)c(C)c3)nc2C)cc1", "> 10 µM"],
  ["COc1ccc(-c2nc(SCCOc3ccc(OCC(=O)O)c(C)c3)sc2-c2ccc(OC)cc2)cc1", "5.35 µM"],
  ["Cc1cc(OCc2nc(-c3ccc(N4CCCC4)cc3)c(-c3ccc(OC(F)(F)F)cc3)s2)ccc1OCC(=O)O", "> 10 µM"],
  ["COc1ccc(-c2nc(COc3ccc(OCC(=O)O)c(C)c3)sc2-c2ccc(Cl)cc2)cc1", "> 10 µM"],
  ["Cc1ccc(-c2csc(COc3ccc(OCC(=O)O)c(C)c3)n2)cc1", "> 10 µM"],
  ["COc1ccc(-c2nc(CSc3ccc(OCC(=O)O)c(C)c3)sc2-c2ccc(OC)cc2)cc1", "> 10 µM"],
  ["Cc1cc(OCc2cc(-c3ccc(C(F)(F)F)cc3)cc(-c3ccc(C(F)(F)F)cc3)c2)ccc1OCC(=O)O", "> 10 µM"],
  ["COc1ccc(-c2nc(COc3ccc(OCC(=O)O)c(C)c3)sc2-c2ccc(OC)c(Cl)c2)cc1", "> 10 µM"],
  ["Cc1cc(OCc2nc(-c3ccc(C(=O)N(C)C(C)C)cc3)c(-c3ccc(OC(F)(F)F)cc3)o2)ccc1OCC(=O)O", "0.7 µM"],
  ["COc1ccc(-c2nc(COc3ccc(OCC(=O)O)c(C)c3)sc2-c2ccc(C(C)(C)C)cc2)cc1", "> 10 µM"]
]}
